- TEST SYSTEM: Acyl-protein thioesterase 1 (Homo sapiens) (UniProt O75608)
- Sequence (O75608 whole entry, looked up): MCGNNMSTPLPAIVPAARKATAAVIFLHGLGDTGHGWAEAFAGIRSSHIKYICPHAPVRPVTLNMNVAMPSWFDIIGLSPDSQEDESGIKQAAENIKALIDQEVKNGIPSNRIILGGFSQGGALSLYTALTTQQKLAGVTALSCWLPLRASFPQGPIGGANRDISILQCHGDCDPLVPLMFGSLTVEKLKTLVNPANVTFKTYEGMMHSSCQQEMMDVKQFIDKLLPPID
- PROTOCOL NOTES: inhibition of human lysophospholipase 1 – biochemical, fluorescence polarization, FP-Rh probe ABPP, counter-screen for PME1 inhibitor project, primary screen (AID 2174);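 further: inhibitors block serine hydrolase probe labeling of LYPLA1 so polarization falls; 0% = enzyme with DMSO and 100% = wells lacking LYPLA1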
- EXPERIMENTAL SETUP: recombinant LYPLA1, FP-Rh probe fluorescence polarization; at 5.9 µM; stronger effect = higher value
In all, about 320,000 compounds went through this assay and about 500 (0.16%) were called active. What follows is part of a selection rich in actives, with near analogues and random picks from the rest.
Entries and their measured inhibition follow.
MEASURED PARAMETER: inhibition (%)

1) CCCCCOc1ccc(/C=C/C(=O)NCCc2nc3ccccc3[nH]2)cc1OC : -8.82
2) O=C(COc1ccc(Cl)cc1)N1CCN(c2cccc(C(F)(F)F)c2)CC1 : 20.5
3) O=C(Nc1nnc(C2COc3ccccc3O2)o1)c1ccc(F)cc1 (stereo unspecified) : -3.93
4) O=C(COc1ccc(Cl)cc1)N1CCN(S(=O)(=O)c2ccc(Cl)cc2)CC1 : -0.66
5) Cc1ccccc1C(=O)NC(=S)NC1CC1 : -2.2
6) Cc1ccc(N2CCN(/N=C/c3cccs3)CC2)cc1 : 2.05

----------
- TEST SYSTEM: Acyl-protein thioesterase 1 (Homo sapiens)
- PROTOCOL NOTES: inhibition of human lysophospholipase 1 – biochemical, fluorescence polarization, FP-Rh probe ABPP, counter-screen for PME1 inhibitor project, primary screen (AID 2174);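 further: inhibitors block serine hydrolase probe labeling of LYPLA1 so polarization falls; 0% = enzyme with DMSO and 100% = wells lacking LYPLA1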
- EXPERIMENTAL SETUP: recombinant LYPLA1, FP-Rh probe fluorescence polarization; at 5.9 µM; stronger effect = higher value
The campaign covered roughly 320,000 compounds. About 500 (0.16%) were called active. Shown is part of a subset that was picked to be rich in actives.
inhibition listing for selected molecules.
MEASURED PARAMETER: inhibition (%)

1) O=c1[nH]n(-c2cccc(Cl)c2)c2ncccc12 : 29.8
2) CC(C)(CNC(=O)CNC(=O)C1CCCCC1)N1CCOCC1 : -3.79
3) CCOC(=O)c1nnn2c1nc(N1CCN(c3ccccc3)CC1)c1ccccc12 : -0.46

----------
- TEST SYSTEM: Acyl-protein thioesterase 1 (Homo sapiens) (UniProt O75608)
- PROTOCOL NOTES: inhibition of human lysophospholipase 1 – biochemical, fluorescence polarization, FP-Rh probe ABPP, counter-screen for PME1 inhibitor project, primary screen (AID 2174);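 further: inhibitors block serine hydrolase probe labeling of LYPLA1 so polarization falls; 0% = enzyme with DMSO and 100% = wells lacking LYPLA1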
- EXPERIMENTAL SETUP: recombinant LYPLA1, FP-Rh probe fluorescence polarization; at 5.9 µM
Hit rate of the full screen: of about 320,000 compounds, about 500 (0.16%) were called active.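 How the source made its calls: active means inhibition above the mean of all tested compounds plus 3 SD, set per campaign (cut at about 14% in these data); inactive means the rest.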 This is one part of a sample in which actives are shown more often than they occur.
Possible outcomes: active, inactive

1) Cc1ccc(S(=O)(=O)N2CCC(C(=O)N[C@@H](C)C(=O)NCCc3ccccc3)CC2)cc1 : inactive
2) O=C(NCc1ccccc1)[C@H]1C[C@@H]1[C@H](NP(=O)(c1ccccc1)c1ccccc1)c1ccccc1 : inactive
3) COc1ccc(CCNC(=O)c2ccc3c(c2)NC(=O)C(N2CCOCC2)S3)cc1OC (configuration not stated) : inactive
4) CC1=C(C)C(=O)OC(C(C)C2CCC3C4CC=C5CC(OC6OC(COC7OC(CO)C(O)C(O)C7O)C(O)C(O)C6O)CC(O)C5(C)C4CCC23C)C1 (configuration not stated) : inactive
5) CCn1c(SCC(=O)NC2CC2)nnc1-c1ccccn1 : inactive
6) CCOC(=O)/C(=N\Nc1ccccc1Cl)N(C)C1CCS(=O)(=O)C1 (configuration not stated) : inactive
7) CCCCN1C(=O)/C(=C2/Sc3ccc(Cl)cc3N2CC)SC1=S : inactive
8) CCOc1ccc(C(=O)NCC(=O)N2CCN(c3ccc(C(F)(F)F)cn3)CC2)cc1 : inactive
9) O=C(O)c1ccccc1-c1ccccc1C(=O)NCCc1ccccc1 : inactive
10) CCNC(=O)CC1C(=O)N(c2ccc(F)cc2)C(=O)N1Cc1cccs1 (configuration not stated) : inactive
11) Cn1c(=O)c2c(nc(N/N=C/c3cccs3)n2Cc2ccc(Br)cc2)n(C)c1=O : inactive
12) COc1ccccc1C(=O)NC(CCSC)C(=O)N1CCN(C/C=C/c2ccccc2)CC1 (configuration not stated) : active
13) O=C(CCCn1c(=O)c2sccc2n(CC(=O)NCC2CCCO2)c1=O)NCc1ccco1 (configuration not stated) : inactive
14) O=[N+]([O-])c1ccc(N(CCO)Cc2ccccc2)c([N+](=O)[O-])c1 : inactive
15) CC(=O)Nc1ccc(N2C(=O)C3C4CC(=O)C(c5ccccc54)C3C2=O)cc1 (configuration not stated) : inactive
16) O=C(Nc1cccc(Cl)c1)c1cncn1-c1ccc(F)cc1 : inactive
17) O=C(COC(=O)CCOc1ccccc1)Nc1cc(S(=O)(=O)N2CCCCC2)ccc1Cl : inactive
